test: Luminescence activity assay of purified Gaussia luciferase mutants on coelenterazine derivative ZS2; assay type: biochemical; design: key: ratio of mutant luminescence intensity to wild-type Gaussia luciferase; conditions: Substrate ZS2 (Table 16)
Recorded Activity of mutant relative to wild-type Gaussia luciferase without the signal peptide values for a group of molecules are listed next.
Measured Endpoint: Activity of mutant relative to wild-type Gaussia luciferase without the signal peptide

>>> test_value("F26R V29R A30V V31L S33G A36V T37R: Gaussia luciferase mutant (protein, SIGNAL (1)..(17), Gaussia luciferase mutant) MGVKVLFALICIAVAEAKPTENNEDRNIRVLAGNFVRTDLDADRGKLPGKKLPLEVLKEMEANARKAGCTRGCLICLSHIKCTPKMKKFIPGRCHTYEGDKESAQGGIGEAIVDIPEIPGFKDLEPMEQFIAQVDLCVDCTTGCLKGLANVQCSDLLKKWLPQRCATFASKIQGQVDKIKGAGGD")
0.115
>>> test_value("F26C N27D V29L A32V A36I T37A L40I: Gaussia luciferase mutant (protein, SIGNAL (1)..(17), Gaussia luciferase mutant) MGVKVLFALICIAVAEAKPTENNEDCDILAVVSNFIATDIDADRGKLPGKKLPLEVLKEMEANARKAGCTRGCLICLSHIKCTPKMKKFIPGRCHTYEGDKESAQGGIGEAIVDIPEIPGFKDLEPMEQFIAQVDLCVDCTTGCLKGLANVQCSDLLKKWLPQRCATFASKIQGQVDKIKGAGGD")
0.166

From: patent US20250066745A1
